Provenance of the data: PubChem BioAssay AID1625

experiment: up-regulation of insulin promoter-GFP reporter – imaging, high-content screening, mouse beta cells (AID 1625); conditions: MIN6 insulin promoter-GFP reporter, at 5 µM
Out of some 190,000 compounds screened, about 570 (0.3%) were called active.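 Rule for the calls: active = z-score above 3 at 5 µM with at least 500 cells counted in the well; inconclusive = wells under 500 cells, flagged as cytotoxic or low count; inactive = the rest.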 This is one part of a sample in which actives are shown more often than they occur.
Form entry, call: pick from Yes (active), No (inactive)

Given `Cc1ccc(OCC(=O)c2cc(C)n(Cc3ccco3)c2C)c([N+](=O)[O-])n1` , state the outcome it received in this test.
No

Query: recorded result category for `O=C(CNC(=O)c1ccccc1)NCC(=O)OCC(=O)c1ccccc1` in this test
No

Recorded call for `Cc1c(C(=O)N2CCCc3ccccc32)sc2nc(-c3ccccc3)cn12` ?
No

How did this test come out for `Cc1ccc(-n2[nH]c(C)c(/C=N/NC(=O)c3cccc([N+](=O)[O-])c3)c2=O)cc1C` ?
No

I'd appreciate the recorded outcome for `NNC(=O)c1oc2nc(-c3ccccc3)cc(-c3ccco3)c2c1N` from this test.
No

Test call for this compound, please: `O=C1CCCCC(=O)c2ccccc2N1`
No

Could you check what this test reported for Cc1ccc(SC(C)C(=O)NCc2ccc(F)cc2)cc1 (stereo not given) ?
No

Hi team, can someone confirm the assay call for `O=C(CNC(=O)c1ccco1)OCC(=O)c1ccccc1` ?
Yes

Just curious, what result did `S=c1[nH]nc(-c2cccs2)n1/N=C/c1cn(-c2ccccc2)nc1-c1ccc(Cl)cc1` get here?
No

State the result this test recorded for `Cc1ccc(Oc2nc(-c3ccccn3)nc3ccccc23)cc1` .
No

Test call, this compound: `CC(=O)Nc1nc(C)c(-c2csc(Nc3ccc(S(N)(=O)=O)cc3)n2)s1`
No

What did the test return for `O=C(CSc1nc2ccccc2s1)Nc1ccc(C(=O)O)cc1` ?
No

What did this assay record as the result for `O=C(Cn1c(N2CCN(C/C=C/c3ccccc3)CC2)nc2ccccc21)c1ccccc1` ?
No

Per the records of this test, what outcome belongs to `O=C(COC(=O)CNC(=O)c1ccco1)Nc1ccc(F)cc1` ?
No

For `C/C(=N\Nc1cccc(C(=O)O)c1)c1ccc2c(c1)Nc1ccccc1S2` , what call appears in the results of this test?
No

Please indicate how the test categorized `O=C(CCN1C(=O)/C(=C/c2cccs2)SC1=S)NNC(=O)c1cccc(O)c1` .
Yes

# outcome recorded in this test, key = `COCc1cc(=O)[nH]c(SC)n1`
No

I'd appreciate the recorded outcome for `COC(=O)c1scc(S(=O)(=O)C(C)(C)C)c1-n1cccc1` from this test.
No

Which result was noted for this compound in the test: `O=C(Nc1nnc(Cc2ccccc2)s1)c1cnccn1`
No

Just curious, what result did `Cc1ccnc(NC(=O)CCCOc2ccccc2)c1` get here?
No

Dear all, I need the recorded test outcome for `Cc1[nH]n(-c2ccc([N+](=O)[O-])cc2)c(=O)c1C=NCCN1CCN(C(=O)c2ccccc2F)CC1` , thank you.
Yes

Query: recorded result category for `O=C(Nc1nnc(SCc2c(Cl)cccc2Cl)s1)c1cccc([N+](=O)[O-])c1` in this test
No

Assay result, entry CN1CCN(C(c2cc3cc4c(cc3[nH]c2=O)OCCO4)c2nnnn2C2CCCC2)CC1 (stereo not given) — outcome?
No

How did this test come out for `Cc1ccc(C(=O)N/C(=C\c2ccco2)C(=O)N2CCSCC2)cc1C` ?
No

Hi, do you know how `C=CCNC(=S)N1CCN(CCN=Cc2c(C)[nH]n(-c3ccc([N+](=O)[O-])cc3)c2=O)CC1` came out in this test?
No

Field: outcome | Entry: `CNC(=S)NNC(=O)c1cccn(Cc2ccccc2)c1=O`
No

Which outcome was assigned to CCCN(CCC)CC(O)COc1ccccc1C(=O)Nc1ccccc1 (stereo not given) in this test?
No

Fill in: this test's call for `CCCS(=O)(=O)C(=C1Nc2ccccc2N1)S(=O)(=O)CCC` is ___
No

Test call for this compound, please: `O=c1c2cc(-c3ccccc3)sc2nc2n1N=C(c1cccs1)CS2`
No

Which outcome did this test record for the compound O=C(O)CC1=C(Nc2ccccc2)C(=O)N(c2ccccc2)C1c1ccc(Cl)cc1 (stereo not given) ?
No

Tell me the assay call for `CCOC(=O)C1CCN(C(=O)Nc2cccc(OC)c2)CC1` please.
No

Which outcome did this test record for the compound CCCCN(CCCC)CC(O)Cn1c2ccccc2c(=O)c2ccccc21 (stereo not given) ?
No

What is the recorded call for this compound in the test? O=C1CC(c2ccccc2)CC(O)=C1C=NCCN1CCOCC1 (stereo not given)
No

Per the assay record, what outcome was assigned to `COc1ccc(-c2[nH]ncc2CN(Cc2nccn2C)C(C)C)cc1F` ?
No

Which outcome did this test record for the compound `CC(=O)Nc1ccc(CC#N)cc1` ?
No

Tell me the assay call for O=C1CCCCC1C(=O)c1ccccc1 (stereo not given) please.
No

Could you kindly confirm the outcome this assay logged for `O=C(COC(=O)C1CCCCC1)Nc1ccc([N+](=O)[O-])cc1` ?
No

Write down the call the test reported for this compound. Item: `CC(=O)N1N=C(c2ccncc2)OC1(Cc1ccccc1)Cc1ccccc1`
No

Could you please tell me the result logged for `CC(C)c1nc(SCC(=O)NC(=O)NC(C)(C)C)n[nH]1` in this assay?
No

Outcome? `Cc1cc(C)cc(NC(=O)C2CCN(c3nc(C)cc(C)n3)CC2)c1`
No

Hi team, can someone confirm the assay call for `O=S(=O)([N-]c1nc2ccccc2nc1-[n+]1ccc(Cc2ccccc2)cc1)c1ccc(Br)s1` ?
No

# lookup: test call for `CCCCSc1nnc2c(n1)OC=Nc1ccccc1-2`
No

Tell me the recorded outcome of this test for `CN1CCN(C(=O)/C(=C\c2ccc3c(c2)OCO3)NC(=O)c2cccs2)CC1` .
No

Outcome logged for `O=C(NNC(=S)NC(=O)c1cn(-c2ccccc2)nc1-c1ccccc1)c1ccncc1` in this assay:
No

Which outcome did this test record for the compound Cc1cc(C)c(NC(=O)CN2C(=O)NC(Cc3ccccc3)C2=O)c(C)c1 (stereo not given) ?
No
